# target or test system: T1, B3GNT2 (Homo sapiens, UniProt Q9NY97)
# T1 construct: The respective ORFs of candidate genes [CD274 (NM_014143), MCL1 (NM_021960), JUNB (NM_002229), and B3GNT2 (NM_006577)] were synthesized; expressed in transfected cells; host or cells: A375 melanoma cells (lentiviral ORF overexpression)
# T1 sequence (Q9NY97 1-397): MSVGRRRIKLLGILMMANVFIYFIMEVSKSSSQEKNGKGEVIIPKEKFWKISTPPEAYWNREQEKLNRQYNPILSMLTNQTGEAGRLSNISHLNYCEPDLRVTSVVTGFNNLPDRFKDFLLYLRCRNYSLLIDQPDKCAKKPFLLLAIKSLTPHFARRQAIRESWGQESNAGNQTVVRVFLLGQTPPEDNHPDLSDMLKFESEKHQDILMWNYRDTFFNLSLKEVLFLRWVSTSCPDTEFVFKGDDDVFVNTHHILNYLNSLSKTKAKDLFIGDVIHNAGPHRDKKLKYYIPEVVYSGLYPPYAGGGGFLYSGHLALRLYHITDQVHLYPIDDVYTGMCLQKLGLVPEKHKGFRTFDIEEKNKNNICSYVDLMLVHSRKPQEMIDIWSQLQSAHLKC
# test method notes: Co-IP of FLAG-tagged B3GNT2 followed by mass spectrometry
# Assay type: cell-based
# measurement context: Co-IP with FLAG antibody, N-terminally FLAG-tagged B3GNT2; mass spectrometry count, unit not given
Would you kindly list N-term FLAG for each of these molecules?
Numbers only.

A selection of reference data follows.
molecule	N-term FLAG
ERP44 (protein) EITSLDTENIDEILNNADVALVNFYADWCRFSQMLHPIFEEASDVIKEEFPNENQVVFARVDCDQHSDIAQRYRISKYPTLKLFRNGMMMKREYRGQRSVKALADYIRQQKSDPIQEIRDLAEITTLDRSKRNIIGYFEQKDSDNYRVFERVANILHDDCAFLSAFGDVSKPERYSGDNIIYKPPGHSAPDMVYLGAMTNFDVTYNWIQDKCVPLVREITFENGEELTEEGLPFLILFHMKEDTESLEIFQNEVARQLISEKGTINFLHADCDKFRHPLLHIQKTPADCPVIAIDSFRHMYVFGDFKDVLIPGKLKQFVFDLHSGKLHREFHHGPDPTDTAPGEQAQDVASSPPESSFQKLAPSEYRYTLLRDRDEL	0
CASP14 (protein) MSNPRSLEEEKYDMSGARLALILCVTKAREGSEEDLDALEHMFRQLRFESTMKRDPTAEQFQEELEKFQQAIDSREDPVSCAFVVLMAHGREGFLKGEDGEMVKLENLFEALNNKNCQALRAKPKVYIIQACRGEQRDPGETVGGDEIVMVIKDSPQTIPTYTDALHVYSTVEGYIAYRHDQKGSCFIQTLVDVFTKRKGHILELLTEVTRRMAEAELVQEGKARKTNPEIQSTLRKRLYLQ	8
PGAM5 (protein) MAFRQALQLAACGLAGGSAAVLFSAVAVGKPRAGGDAEPRPAEPPAWAGGARPGPGVWDPNWDRREPLSLINVRKRNVESGEEELASKLDHYKAKATRHIFLIRHSQYHVDGSLEKDRTLTPLGREQAELTGLRLASLGLKFNKIVHSSMTRAIETTDIISRHLPGVCKVSTDLLREGAPIEPDPPVSHWKPEAVQYYEDGARIEAAFRNYIHRADARQEEDSYEIFICHANVIRYIVCRALQFPPEGWLRLSLNNGSITHLVIRPNGRVALRTLGDTGFMPPDKITRS	4
ERLIN1 (protein) MNMTQARVLVAAVVGLVAVLLYASIHKIEEGHLAVYYRGGALLTSPSGPGYHIMLPFITTFRSVQTTLQTDEVKNVPCGTSGGVMIYIDRIEVVNMLAPYAVFDIVRNYTADYDKTLIFNKIHHELNQFCSAHTLQEVYIELFDQIDENLKQALQKDLNLMAPGLTIQAVRVTKPKIPEAIRRNFELMEAEKTKLLIAAQKQKVVEKEAETERKKAVIEAEKIAQVAKIRFQQKVMEKETEKRISEIEDAAFLAREKAKADAEYYAAHKYATSNKHKLTPEYLELKKYQAIASNSKIYFGSNIPNMFVDSSCALKYSDIRTGRESSLPSKEALEPSGENVIQNKESTG	11

# evaluate next
Input: Consider the molecule SPRR2E (protein) MSYQQQQCKQPCQPPPVCPTPKCPEPCPPPKCPEPCPPPKCPQPCPPQQCQQKCPPVTPSPPCQPKCPPKSK and give its measured N-term FLAG.
Output: 16

Origin of measurements: patent US20240261333A1
